The origin of these recorded values is ChEMBL document CHEMBL1123561.

Test: Half-life period was determined at 20 degree Celsius at UV lambdamax nm of 255 (14000), 339 (7500)
Assay type: ADME
measured-parameter: half-life
Please provide the amount together with its unit, number first.

Prompt: Identify the reported half-life for the following entry. `N#[N+]c1cccc2cccc(S(=O)(=O)[O-])c12`
Response: 16 h

* * *

Experiment: Half-life period was determined at 20 degree Celsius at UV lambdamax nm of 256 (16000), 349 (9000)
Assay type: ADME
measured-parameter: half-life (min)
Answers are plain numbers, in min.

Prompt: Identify the reported half-life for the following entry. `N#[N+]c1ccc2cccc(S(=O)(=O)[O-])c2c1`
Response: 45
